# Procedure summary: Particle size and polydispersity of LNP containing pro-drug (dynamic light scattering)
# Type: physicochemical
# Test parameters: LNP; pro-drug concentration 80 %
Give measured Size (nm) for each item. Keep answers brief.
Give a bare numeral; the unit nm is implied.

Summary for this compound, CCCCC/C=C\C/C=C\CCCCCCCC(=O)O[C@@H](C/C=C\CCCCCCCCOC(=O)c1ccccc1OC(C)=O)CCCCCC : Size (nm) is 82

The measured Size (nm) associated with CC/C=C\C/C=C\C/C=C\CCCCCCCC(=O)O[C@@H](C/C=C\CCCCCCCCOC(=O)CCC(=O)OCC(=O)[C@@]1(O)[C@H](C)C[C@H]2[C@@H]3CCC4=CC(=O)C=C[C@]4(C)[C@@]3(F)[C@@H](O)C[C@@]21C)CCCCCC reads 92

Memo: CCCCC/C=C\C/C=C\CCCCCCCC(=O)O[C@@H](C/C=C\CCCCCCCCOC(=O)CC/C(C)=C/Cc1c(O)c2c(c(C)c1OC)COC2=O)CCCCCC , reported Size (nm): 91
